molecular target: T1, hTNFSF9-His (monomeric human TNFSF9 extracellular domain with 9x-Histidine tag) (human, UniProt P41273 50-254); test: SPR (Biacore)
T1 construct: also called hTNFSF9-His protein; monomeric hTNFSF9-His antigen
T1 sequence (P41273 other isoform, or with tags, fused parts or gaps): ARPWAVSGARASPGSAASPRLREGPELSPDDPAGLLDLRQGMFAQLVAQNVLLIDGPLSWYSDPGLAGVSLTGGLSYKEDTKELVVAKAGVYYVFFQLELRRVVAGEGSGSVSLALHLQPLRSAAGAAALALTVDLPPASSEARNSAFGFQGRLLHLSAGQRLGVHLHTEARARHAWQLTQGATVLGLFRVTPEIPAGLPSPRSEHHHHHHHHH
EXPERIMENTAL READOUT: Kd

BINDER	EXPERIMENTAL READOUT	EXPERIMENTAL VALUE
SC113.44 (antibody, mouse IgG1, V domains shown, mouse IgG1) VH: QVQLQQSGPELVKPGTSVRISCKASGYTFTSYYIHWVKQRPGQGLEWIGWIYPRDVDTKYNETFKGKATLTADKSSSTAYIQLNSLTSEDSAVYFCARELTGTVFDYWGQGTTLTVSS VL: QIVLSQSPAILSASPGEKVTMTCRASSSVTYMHWYQRKPGSSPKPWIYATSTLASGVPARFSGTGSGTSYSLTISRVEAEDAATYFCQQWSSNPLTFGAGTKLELK	Kd	9 nM
SC113.35 (antibody, mouse IgG2b, V domains shown, mouse IgG2b) VH: DVQLQESGPDLVKPSQSLSLTCTVTGYSITSGYGWHWIRQFPGNKLEWMGYIDYSGNNNYNPSLKSRISITRDTSKNQLFLQLNSVTAEDTATYFCARIYYDAMDYWGQGTSVTVSS VL: DIVMTQSHKFMSTSVGERVSITCKASQDVGGAVAWYQQKPGQSPKLLIYWASTRHTGVPDRFTGSGSGTDFTLTISNVQSEDLADYFCQQYSSYPLTFGAGTKLDLK	Kd	4 nM

We now examine a further binder.
Give the reported Kd for this binder. SC113.36 (antibody, mouse IgG1, V domains shown, mouse IgG1) VH: QVQLKESGPDLVAPSQSLSITCTVSGFSLTSYGVHWVRQPPGKGLEWLGVIWAGGFTNYNSALMSRLSISKDNSKSQVFLKMSSLQTDDTAMYYCVREKDYRYSHYFDYWGQGTTLTVSS VL: DIVMSQSPSSLAVSVGEKVTLSCKSSLSLLYSSNQENYLAWYQQKPGQSPKLLIYWASTRESGVPDRFTGSGSGTDFTLTISSVKAEDLAVYYCQQYYSYPRTFGGGTKLEIK 3 nM
